Would you mind telling me the reported growth of each entry?
Tested on: LOX IMVI melanoma
Test: NCI-60 one-dose screen, 48 h (100 = growth as untreated, 0 = no growth, -100 = all killed)
Conditions: 10 µM
About 83,000 compounds went through this panel and 20% of them were active in at least one assay; those are over-represented in the sample as a whole.
Write down the numeric answer in % and omit the unit.

In: Given the molecule COc1ccc(C2OC(N)=C(O)C2=O)cc1OC (stereo unspecified) , what is its reported growth?
Out: 102

In: Given the molecule CC(C)CCCC(=O)O , what is its reported growth?
Out: 105

In: Given the molecule O=C(O)[C@@H]1[C@H]2C[C@H]3c4[nH]c5ccccc5c4CCN3C[C@@H]2CC[C@@H]1O , what is its reported growth?
Out: 103

In: Given the molecule CCOC(=O)c1cc2cccc(OC)c2oc1=O , what is its reported growth?
Out: 104

In: Given the molecule Cc1ccccc1N=C(c1ccccc1)C1C(=O)c2ccccc2C1=O , what is its reported growth?
Out: 85.9

In: Given the molecule CC1CCC2C(C)(C)C3CC12CC1OC13C (stereo unspecified) , what is its reported growth?
Out: 98.3
